# MEASURED ON: Mitogen-activated protein kinase kinase kinase 2 (Homo sapiens) + Dual specificity mitogen-activated protein kinase kinase 5 (Homo sapiens) (UniProt Q9Y2U5+Q13163)
# Sequence (Q13163 whole entry, looked up): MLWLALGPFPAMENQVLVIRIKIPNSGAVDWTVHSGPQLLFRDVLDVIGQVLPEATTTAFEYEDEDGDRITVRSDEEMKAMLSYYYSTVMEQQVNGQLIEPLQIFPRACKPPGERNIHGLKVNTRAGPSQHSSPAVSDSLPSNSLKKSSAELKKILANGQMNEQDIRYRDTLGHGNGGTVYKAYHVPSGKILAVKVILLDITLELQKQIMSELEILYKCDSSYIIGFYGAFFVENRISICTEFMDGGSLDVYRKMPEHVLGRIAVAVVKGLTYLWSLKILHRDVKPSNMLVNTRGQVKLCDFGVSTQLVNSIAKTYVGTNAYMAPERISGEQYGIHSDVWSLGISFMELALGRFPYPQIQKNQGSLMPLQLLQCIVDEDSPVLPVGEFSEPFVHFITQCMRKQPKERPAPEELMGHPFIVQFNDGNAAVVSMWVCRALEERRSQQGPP
# Sequence (Q9Y2U5 whole entry, looked up): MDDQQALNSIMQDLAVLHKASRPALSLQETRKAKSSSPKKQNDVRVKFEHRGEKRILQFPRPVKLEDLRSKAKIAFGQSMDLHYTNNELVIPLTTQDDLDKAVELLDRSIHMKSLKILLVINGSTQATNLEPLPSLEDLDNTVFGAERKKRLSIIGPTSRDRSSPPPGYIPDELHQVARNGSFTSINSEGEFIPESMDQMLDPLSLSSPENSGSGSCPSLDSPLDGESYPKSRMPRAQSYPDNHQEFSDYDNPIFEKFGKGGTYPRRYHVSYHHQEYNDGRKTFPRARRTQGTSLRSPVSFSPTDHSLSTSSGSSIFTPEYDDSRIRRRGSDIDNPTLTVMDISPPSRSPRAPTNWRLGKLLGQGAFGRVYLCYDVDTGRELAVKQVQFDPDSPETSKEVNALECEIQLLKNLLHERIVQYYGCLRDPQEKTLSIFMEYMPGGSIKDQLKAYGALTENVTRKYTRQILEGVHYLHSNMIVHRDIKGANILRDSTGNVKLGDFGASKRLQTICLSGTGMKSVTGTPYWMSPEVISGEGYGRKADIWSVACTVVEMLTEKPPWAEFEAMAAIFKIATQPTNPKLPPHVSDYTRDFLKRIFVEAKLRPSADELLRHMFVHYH
# PROTOCOL TEXT: inhibitors of MEK5 binding to MEKK2, dose response, biochemical, bead multiplex flow cytometry, wildtype (AID 1897)
# PARTICULARS: MEK5-MEKK2 PB1 binding
The source made the active and inactive calls. No rule for the calls is given here.
Possible outcomes: YES (active), NO (inactive)

MOLECULE: Cc1ccccc1OCC(O)CNC1CCC(NCC(O)COc2ccccc2C)CC1 (stereo unspecified)
CLASS NAME: NO
--
MOLECULE: O=C(CCCC(=O)N(CC(=O)NC1CCCC1)C1CCCC1)Nc1ccccn1
CLASS NAME: NO
--
MOLECULE: CN(C)CCCN(C(=O)c1ccc2c(c1)CCCC2)c1nc2ccc(Cl)cc2s1
CLASS NAME: NO
--
MOLECULE: CCCCCc1cc(=O)oc2c(C(CCN3CCCC(C)C3)c3ccc4c(c3)OCO4)c(OC)cc(OC)c12 (stereo unspecified)
CLASS NAME: NO
--
MOLECULE: NC(=NCCCCCCN=C(N)/N=C(\N)Nc1ccc(Cl)cc1)/N=C(\N)Nc1ccc(Cl)cc1
CLASS NAME: YES
--
MOLECULE: NC(=O)CSc1nnc(Cc2ccc3c(c2)OCO3)o1
CLASS NAME: NO
--
MOLECULE: CCNc1ccc2noc3c2c1C(=O)c1ccccc1-3
CLASS NAME: YES
--
MOLECULE: CCOc1ccc(C2=C/C(=C/c3cccnc3)C(=O)O2)cc1
CLASS NAME: NO
--
MOLECULE: CCN(CC)CCOC(=O)c1ccc(N/C=C(/C#N)c2nc(-c3cc4ccccc4oc3=O)cs2)cc1
CLASS NAME: YES
--
MOLECULE: CC(=O)c1c(C)[nH]c(C(=O)NC2=NCCS2)c1C
CLASS NAME: NO
--
MOLECULE: CCCCCCCCCCOC(=O)Cn1c(COc2ccc(OC)cc2)[n+](C)c2ccccc21
CLASS NAME: NO
